Data origin, for the record: patent US10155769B2

target: GluA1o-γ8 (Homo sapiens (Human), UniProt P42261+Q8WXS5); assay: Calcium flux assay (FLIPR), inhibition of TARP γ8 dependent AMPA receptor activity; format: cell-based; conditions: HEK293 cells stably expressing GRIA1o-CACNG8 fusion construct; calcium flux following 15 μM glutamate; negative log of IC50 in molar
Sequence (P42261 other isoform, or with tags, fused parts or gaps): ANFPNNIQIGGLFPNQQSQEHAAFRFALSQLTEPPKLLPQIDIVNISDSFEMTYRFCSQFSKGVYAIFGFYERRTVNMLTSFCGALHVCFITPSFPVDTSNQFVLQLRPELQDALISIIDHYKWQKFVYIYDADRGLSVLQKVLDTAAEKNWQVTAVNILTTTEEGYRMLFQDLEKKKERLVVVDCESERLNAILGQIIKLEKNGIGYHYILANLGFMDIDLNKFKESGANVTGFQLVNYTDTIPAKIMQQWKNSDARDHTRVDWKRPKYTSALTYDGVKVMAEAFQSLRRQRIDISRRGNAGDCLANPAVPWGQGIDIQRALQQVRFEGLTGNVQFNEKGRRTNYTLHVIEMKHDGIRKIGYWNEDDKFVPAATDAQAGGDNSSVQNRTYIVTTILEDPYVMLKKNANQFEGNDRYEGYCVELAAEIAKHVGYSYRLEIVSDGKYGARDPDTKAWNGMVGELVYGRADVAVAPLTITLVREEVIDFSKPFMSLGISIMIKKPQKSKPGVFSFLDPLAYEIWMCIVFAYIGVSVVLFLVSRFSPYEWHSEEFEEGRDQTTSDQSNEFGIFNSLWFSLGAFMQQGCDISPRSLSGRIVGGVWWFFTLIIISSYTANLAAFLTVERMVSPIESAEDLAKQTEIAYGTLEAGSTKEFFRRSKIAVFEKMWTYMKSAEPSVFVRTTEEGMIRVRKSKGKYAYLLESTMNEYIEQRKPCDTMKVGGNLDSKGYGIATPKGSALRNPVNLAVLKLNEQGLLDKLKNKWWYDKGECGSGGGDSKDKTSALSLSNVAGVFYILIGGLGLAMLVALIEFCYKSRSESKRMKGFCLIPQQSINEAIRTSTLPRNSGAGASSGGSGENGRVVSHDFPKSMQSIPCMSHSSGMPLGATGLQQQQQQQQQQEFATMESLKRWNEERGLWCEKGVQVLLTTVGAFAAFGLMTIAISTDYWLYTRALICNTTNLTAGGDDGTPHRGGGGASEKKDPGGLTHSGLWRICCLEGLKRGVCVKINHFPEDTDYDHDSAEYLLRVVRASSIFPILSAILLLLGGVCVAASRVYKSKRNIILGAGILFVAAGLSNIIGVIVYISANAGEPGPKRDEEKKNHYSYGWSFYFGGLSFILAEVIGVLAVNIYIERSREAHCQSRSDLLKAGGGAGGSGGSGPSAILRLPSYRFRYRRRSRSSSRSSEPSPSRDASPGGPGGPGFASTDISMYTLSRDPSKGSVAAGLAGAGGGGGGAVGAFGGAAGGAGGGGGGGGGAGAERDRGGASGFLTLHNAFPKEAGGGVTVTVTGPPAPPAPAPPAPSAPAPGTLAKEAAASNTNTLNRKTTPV
endpoint_label: pIC50

{"compound": "COc1ccn2cc(C(F)(F)F)nc2c1-c1cc(C)c2c(c1)CC(=O)N2 [Example 58]", "assayed_system": "GluA1o-γ8 (Homo sapiens (Human), UniProt P42261+Q8WXS5)", "pIC50": 7.8}
{"compound": "CCc1nc2c(-c3cc(Cl)c4[nH]ncc4c3)c(C(F)(F)F)ccn2n1 [Example 34]", "assayed_system": "GluA1o-γ8 (Homo sapiens (Human), UniProt P42261+Q8WXS5)", "pIC50": 9.4}
{"compound": "FC(F)(F)c1cn2cnc(C3CC3)c(-c3cc(Cl)c4[nH]ncc4c3)c2n1 [Example 77]", "assayed_system": "GluA1o-γ8 (Homo sapiens (Human), UniProt P42261+Q8WXS5)", "pIC50": 9.0}
{"compound": "COc1ccn2nc(C(F)(F)F)nc2c1-c1cc(C)c2[nH]ncc2c1 [Example 29]", "assayed_system": "GluA1o-γ8 (Homo sapiens (Human), UniProt P42261+Q8WXS5)", "pIC50": 7.6}
{"compound": "CC(C)c1cn2cnc(C(F)(F)F)c(-c3cc(Cl)c4[nH]ncc4c3)c2n1 [Example 66]", "assayed_system": "GluA1o-γ8 (Homo sapiens (Human), UniProt P42261+Q8WXS5)", "pIC50": 10.0}
{"compound": "Fc1c(C2CC2)nc2c(-c3cc(Cl)c4[nH]ncc4c3)c(C(F)(F)F)ncn12 [Example 82]", "assayed_system": "GluA1o-γ8 (Homo sapiens (Human), UniProt P42261+Q8WXS5)", "pIC50": 9.5}
{"compound": "Cc1cc(-c2c(C(F)(F)F)ncn3cc(C(F)(F)F)nc23)cc2cn[nH]c12 [Example 63]", "assayed_system": "GluA1o-γ8 (Homo sapiens (Human), UniProt P42261+Q8WXS5)", "pIC50": 8.9}
{"compound": "Cc1ccn2cc(-c3ccccc3)nc2c1-c1cc(C)c2[nH]ncc2c1 [Example 56]", "assayed_system": "GluA1o-γ8 (Homo sapiens (Human), UniProt P42261+Q8WXS5)", "pIC50": 7.9}
{"compound": "COc1ccn2cc(C(F)(F)F)nc2c1-c1cc(C)c2[nH]ncc2c1 [Example 59]", "assayed_system": "GluA1o-γ8 (Homo sapiens (Human), UniProt P42261+Q8WXS5)", "pIC50": 8.1}
{"compound": "Cc1cc(-c2c(C(F)(F)F)ncn3cc(C4CC4)nc23)cc2cn[nH]c12 [Example 68]", "assayed_system": "GluA1o-γ8 (Homo sapiens (Human), UniProt P42261+Q8WXS5)", "pIC50": 9.6}
{"compound": "Cc1cc(-c2c(C(F)(F)F)ccn3nc(C(F)F)nc23)cc2c1NC(=O)C2 [Example 18]", "assayed_system": "GluA1o-γ8 (Homo sapiens (Human), UniProt P42261+Q8WXS5)", "pIC50": 8.6}
{"compound": "Cc1cc(-c2c(C(F)(F)F)ccn3nc(C(C)C)nc23)cc2c1NC(=O)C2 [Example 39]", "assayed_system": "GluA1o-γ8 (Homo sapiens (Human), UniProt P42261+Q8WXS5)", "pIC50": 9.2}
{"compound": "FC(F)(F)c1cn2ccc(C(F)(F)F)c(-c3cc(Cl)c4[nH]ncc4c3)c2n1 [Example 88]", "assayed_system": "GluA1o-γ8 (Homo sapiens (Human), UniProt P42261+Q8WXS5)", "pIC50": 10.3}
{"compound": "Cc1cc(-c2c(N3CC(F)C3)ccn3nc(C(F)(F)F)nc23)cc2cn[nH]c12 [Example 8]", "assayed_system": "GluA1o-γ8 (Homo sapiens (Human), UniProt P42261+Q8WXS5)", "pIC50": 8.6}
{"compound": "Cc1cc(-c2c(N3CCC3)ccn3nc(C(F)(F)F)nc23)cc2cn[nH]c12 [Example 7]", "assayed_system": "GluA1o-γ8 (Homo sapiens (Human), UniProt P42261+Q8WXS5)", "pIC50": 9.5}
{"compound": "O=C1Cc2cc(-c3c(C(F)(F)F)ccn4nc(C(F)(F)F)nc34)cc(Cl)c2N1 [Example 21]", "assayed_system": "GluA1o-γ8 (Homo sapiens (Human), UniProt P42261+Q8WXS5)", "pIC50": 9.5}
{"compound": "Cc1cc(-c2c(C(F)(F)F)ccn3nc(C(C)C)nc23)cc2cn[nH]c12 [Example 38]", "assayed_system": "GluA1o-γ8 (Homo sapiens (Human), UniProt P42261+Q8WXS5)", "pIC50": 8.7}
{"compound": "Cc1cc(-c2c(C(C)C)ccn3nc(C(F)(F)F)nc23)cc2cn[nH]c12 [Example 49]", "assayed_system": "GluA1o-γ8 (Homo sapiens (Human), UniProt P42261+Q8WXS5)", "pIC50": 10.5}
